tested.on: human small ubiquitin-like modifier 1 (human) (UniProt P63165)
assay: ratio of the apparent affinity for hSUMO1 to that for ySUMO in the titration phage ELISA of FIGS. 25A and 26A; group Low Specificity (0-10)
observable: Specificity Factor

[I] hS1MB-12 (designed binder) VSSVPTKLEVVAATPTSLLISWDASSSSVSYYEITYGETGGNSPVQEFTVPGSSSTATISGLSPGVDYTITVFAYHSDDDLYYAFSPSSINYRT
[II] hS1MB-14 (designed binder) VSSVPTKLEVVAATPTSLLISWDASSSSVSHYHITYGETGGNSPVQEFTVPGSSSTATISGLSPGVDYTITVYAYYSYNDIFFADSPSSINYRT
// query Hi! Which is lower in terms of Specificity Factor, the first one I or the second one II ? Returns: label corresponding to the selected item.
// result II
(II: 2.6, I: 4.4)
